Test system: Zika virus NS2B-NS3 protease (linked construct)
Assay: Primary screen NINDS Rhodamine qHTS for Zika virus inhibitors (AID 1347160); also: nearly all actives have a fitted effect of over 55% in size
Conditions: purified NS2B-NS3 protease, Rhodamine110 substrate fluorescence; series mostly up to 57.1 µM
Inconclusive results are not listed. Active and inactive are the calls of the source. Calls follow the shape of the dose curve; as a rule, active = well fitted inhibition curve with a large enough effect; inconclusive = small, poorly fitted or top-dose-only effect; inactive = no such curve, though single readings can be large or run the other way.
Outcome codes: 1.0 = active, 0.0 = inactive

>  <molecule-smiles>
COc1ccc(C2(CNC(=O)[C@](C)(Cc3c[nH]c4ccccc34)NC(=O)Nc3ccc([N+](=O)[O-])cc3)CCCCC2)nc1

>  <category-label>
0.0

$$$$
>  <molecule-smiles>
C=C1C(=O)O[C@H]2[C@H]1[C@@H](OC(=O)/C(C)=C\C)C[C@]1(C)O[C@@H]1[C@H]1O[C@H]1C(=C)[C@H]2O

>  <category-label>
0.0

$$$$
>  <molecule-smiles>
C/C=C/C(=O)[C@@H](C)C1=CC(=O)C2=C(O[C@@]34CC[C@H](O)C(C)(C)[C@@H]3CC[C@H](C)[C@@]4(C)C2)C1=O

>  <category-label>
1.0

$$$$
>  <molecule-smiles>
Cc1cc(O)cc2oc(C[C@H](C)O)cc(=O)c12

>  <category-label>
1.0

$$$$

----------
Experiment: qHTS for inhibitors of ER calcium dysfunction: SERCaMP assay screened against the NCATS CANVASS Library (AID 1347393); also: nearly all actives have a fitted effect of over 40% in size
Conditions: SH-SY5Y GLuc-SERCaMP (Gaussia luciferase released on ER calcium loss) secretion, thapsigargin, luminescence; series mostly up to 76.6 µM
Inconclusive results are not listed. The source made the active and inactive calls. Calls come from the whole dose curve; as a rule, active = well fitted inhibition curve with a large enough effect; inconclusive = small, poorly fitted or top-dose-only effect; inactive = no such curve, though single readings can be large or run the other way.
Outcome codes: active, inactive

>  <compound>
C=C1C[C@@]23C=CC(=O)[C@@](C)(CCCC(C)C(=O)O)[C@@H]2C[C@@H]1CC3 (some centres undefined)

>  <category-label>
inactive

$$$$
>  <compound>
CN1CCc2cc3c(c4c2[C@H]1[C@@H](O)c1ccccc1-4)OCO3

>  <category-label>
active

$$$$
>  <compound>
O=C(O)Cc1c[nH]c2ccccc12

>  <category-label>
inactive

$$$$
>  <compound>
CNc1ccc(Cl)cc1C(=O)OC[C@]1(C)[C@H]2CC[C@]3(C)[C@@H](C[C@@H](OC)[C@H](C)[C@H]3C3=C(O)C(=O)OC3O)[C@]2(C)CC[C@H]1O (some centres undefined)

>  <category-label>
inactive

$$$$
>  <compound>
CC(C)=CCC[C@@H](C)[C@@H]1CC[C@@]2(C)C[C@H]3C(C)=CC(=O)[C@@H]3/C(C=O)=C\C[C@H]12

>  <category-label>
inactive

$$$$
>  <compound>
COc1ccc2cc(NC(=O)C3=NO[C@H]4[C@H](O)C=C[C@@H](Cl)[C@@]4(O)C3)c(=O)oc2c1OC

>  <category-label>
active

$$$$
>  <compound>
O=C(O)CC1OC(=O)c2c(O)cccc21 (centres undefined)

>  <category-label>
inactive

$$$$
>  <compound>
C[C@@H]1O[C@H](c2c(O)cc(O)c3c(=O)cc(-c4ccc(O)cc4)oc23)[C@H](O)[C@H](O)[C@H]1O

>  <category-label>
inactive

$$$$
>  <compound>
C[C@H]1C[C@@H]([C@@H]2CC[C@]34O[C@H](CC[C@@]35C[C@H](C)C(=O)O5)CN24)OC1=O

>  <category-label>
inactive

$$$$

----------
Assay: U-118MG Cancer Cell Toxicity qHTS against the NCATS CANVASS Library (AID 1347351)
Settings: U-118MG viability, CellTiter-Glo luminescence, 72 h; series mostly up to 38.3 µM
Inconclusive results are not listed. Active and inactive are the calls of the source. Calls come from the whole dose curve; as a rule, active = well fitted cell-killing curve with a large enough effect; inconclusive = small, poorly fitted or top-dose-only effect; inactive = flat fitted curve, though single readings scatter. Numbered stars: 1 amine (or outer) side, 2 acyl side, 3 side chain; on linkers, the order of the positions; unused ones are H or OH. Square brackets hold non-standard residues; d marks the D form. Peptide text beside a SMILES is read from it. ξ: configuration not given here. X4 = O=C(C1CC2(c3ccc(O)cc3)c3ccccc3NC2N1[*:1])[*:2]; ξW = NC(Cc1c[nH]c2ccccc12)C(=O)O; ξY = NC(Cc1ccc(O)cc1)C(=O)O
Outcome codes: active, inactive

>  <compound>
CN1CC[C@]2(c3cccc4c3N[C@@H]3N(C)CC[C@]43[C@@]34CCN(C)[C@@H]3Nc3ccccc34)c3ccccc3N[C@H]12

>  <category-label>
active

$$$$
>  <compound>
C/C=C/C=C/C1(O)C2C=C3C(=O)CC45C(=O)C(O)=C(C)C(=O)C4C1C1(C(=O)C(O)=C(C)C(=O)C351)C2C (stereo unspecified)

>  <category-label>
inactive

$$$$
>  <compound>
O=C1CC(c2cc(O)cc(O)c2)Oc2cc(O)ccc21 (stereo unspecified)

>  <category-label>
inactive

$$$$
>  <compound>
C[C@@H]1C[C@H]2C[C@]3(CCCCN3C)[C@@H]3C[C@H]2[C@H](C1)N(C)C3

>  <category-label>
inactive

$$$$
>  <compound>
CC[C@H](C)[C@H](NC(=O)C(Cc1ccc(O)cc1)NC(=O)C(Cc1c[nH]c2ccccc12)NC(=O)[C@H](C)N)C(=O)N1C(C(=O)NC(Cc2ccc(O)cc2)C(=O)O)CC2(c3ccc(O)cc3)c3ccccc3NC12 (stereo partly specified) (H-A[ξW][ξY]I[X4][ξY]-OH)

>  <category-label>
inactive

$$$$
>  <compound>
CN1CCc2cc3c(c4c2[C@H]1[C@@H](O)c1ccccc1-4)OCO3

>  <category-label>
inactive

$$$$
>  <compound>
COc1cc(/C=C/C(=O)O)ccc1O

>  <category-label>
inactive

$$$$
>  <compound>
CCC[C@@H](C)/C=C(\C)[C@H](O)[C@H](C)/C=C/CC[C@@H](O)[C@H](C)[C@H](O)[C@H](C)[C@H](O)[C@H](C)[C@H]1O[C@H]([C@H](C)C(=O)O)CC[C@@H]1C

>  <category-label>
active

$$$$
>  <compound>
C/C1=C\CC(=O)/C=C/C=C\c2csc(n2)[C@@H](C)NC(=O)C[C@@](S)([C@@H](C)C(=O)O)CC1

>  <category-label>
inactive

$$$$
>  <compound>
CC(C)=CCC/C(C)=C/Cc1c(O)c(CC=C(C)C)c(O)c2c(=O)c3cc(O)ccc3oc12

>  <category-label>
active

$$$$
>  <compound>
C=C[C@]1(C)CC[C@@H]([C@H](C)C(=O)OCC)O1

>  <category-label>
inactive

$$$$
>  <compound>
C[C@@H]1O[C@H](c2c(O)cc(O)c3c(=O)cc(-c4ccc(O)cc4)oc23)[C@H](O)[C@H](O)[C@H]1O

>  <category-label>
inactive

$$$$
>  <compound>
CC[C@@H]1C[C@@]2(CC)OC(=O)[C@@]3(CC)OC(=O)[C@@H]1[C@@H]23

>  <category-label>
inactive

$$$$
>  <compound>
O=C1c2c(O)cc(O)cc2O[C@@H](c2ccc(O)cc2)[C@@H]1c1c(O)cc(O)c2c(=O)cc(-c3ccc(O)c(O)c3)oc12

>  <category-label>
inactive

$$$$
>  <compound>
O=C(O)CC1OCc2c(O)cccc21 (stereo unspecified)

>  <category-label>
inactive

$$$$
>  <compound>
CN1CC[C@]2(c3cccc4c3N[C@@H]3N(C)CC[C@]43[C@@]34CCN(C)[C@@H]3Nc3c([C@]56CCN(C)[C@H]5Nc5ccccc56)cccc34)c3ccccc3N[C@H]12

>  <category-label>
active

$$$$

----------
Test: 10-beta competent E. coli microbial cell viability qHTS against the NCATS CANVASS Library (AID 1347376); also: 0% is about no effect
Settings: E. coli 10-beta viability, BacTiter-Glo ATP luminescence, overnight; series mostly up to 46.1 µM
Inconclusive results are not listed. Calls of active or inactive are those of the source. The call rests on the fitted dose curve; in most records, active means well fitted curve in the direction sought with a large enough effect; inconclusive means small, poorly fitted or top-dose-only effect, or effect the other way, or another doubt; inactive means no such curve, though single readings can be large or run the other way. Numbered stars: 1 amine (or outer) side, 2 acyl side, 3 side chain; on linkers, the order of the positions; unused ones are H or OH. Square brackets hold non-standard residues; d marks the D form. Peptide text beside a SMILES is read from it. X1 = CCCCCCCCCC(=O)[C@H](C(=O)[*:2])[C@@H]1CNC(=O)[C@@H](N[*:1])CS1
measure: activity change, negative = cytotoxic

>  <molecule>
C=C(C)C(=O)O[C@H]1C[C@H](C)[C@@H](OC(C)=O)CC[C@@]2(C)O[C@@H]2[C@H]2OC(=O)C(COC(C)=O)=C12

>  <result>
inactive

$$$$
>  <molecule>
CCC[C@@H](C)/C=C(\C)[C@H](O)[C@H](C)/C=C/CC[C@@H](O)[C@H](C)[C@H](O)[C@H](C)[C@H](O)[C@H](C)[C@H]1O[C@H]([C@H](C)C(=O)O)CC[C@@H]1C

>  <result>
inactive

$$$$
>  <molecule>
CO[C@@H]1[C@H](O)[C@@H](C)O[C@@H](OC[C@H]2/C=C/C=C/C(=O)C(C)C[C@H](C)C(O[C@@H]3O[C@H](C)CC4(OC(=O)O[C@@H]4C)C3O)[C@@H](C)/C=C/C(=O)OC2C)[C@@H]1OC (stereo partly drawn)

>  <result>
inactive

$$$$
>  <molecule>
O=c1cc(-c2ccc(O)c(O[C@@H]3O[C@H](CO)[C@@H](O)[C@H](O)[C@H]3O)c2)oc2cc(O[C@@H]3O[C@H](CO)[C@@H](O)[C@H](O)[C@H]3O)cc(O)c12

>  <result>
inactive

$$$$
>  <molecule>
C[C@@H]1C[C@H]2C[C@]3(CCCCN3C)[C@@H]3C[C@H]2[C@H](C1)N(C)C3

>  <result>
inactive

$$$$
>  <molecule>
O=C(O)[C@@]12COC3(O)C1CCN1CC[C@H]3[C@@H]1c1c2[nH]c2ccccc12

>  <result>
inactive

$$$$
>  <molecule>
CCC1=C2CCCN3C(=O)O[C@H]([C@H]1OC(C)=O)[C@H]23

>  <result>
inactive

$$$$
>  <molecule>
C=C1C[C@@]23C=CC(=O)[C@@](C)(CCC(=O)Nc4c(O)ccc(C(=O)O)c4O)C2C[C@@H]1C(O)C3 (stereo partly drawn)

>  <result>
inactive

$$$$
>  <molecule>
CCCCCCCCCC(=O)[C@@H]1C(=O)N[C@@H](CC(C)C)C(=O)N[C@H](C)C(=O)N2CCC[C@H]2C(=O)N[C@@H](C(C)C)C(=O)N[C@H]2CS[C@H]1CNC2=O (cyclo(L[dA]PV[X1]))

>  <result>
inactive

$$$$
>  <molecule>
CO[C@H]1/C=C/CC[C@@H](S[C@@H]2O[C@H](CO)[C@@H](O)[C@H](O)[C@H]2O)CC(=O)O[C@@H](/C(C)=C/[C@H](C)C(=O)CCCC2CC(=O)NC(=O)C2)[C@@H](C)[C@@H]1O

>  <result>
inactive

$$$$
>  <molecule>
Oc1ccc(C2c3c(O)cc(O)cc3[C@@H]3C(c4ccc(O)cc4)c4c(O)cc(O)cc4[C@H]23)cc1 (stereo partly drawn)

>  <result>
inactive

$$$$
>  <molecule>
CN1CCc2cc3c(c4c2[C@H]1[C@@H](O)c1ccccc1-4)OCO3

>  <result>
inactive

$$$$
>  <molecule>
C[C@@H]1C(=O)[C@]23CC[C@H]1C[C@]21O[C@H]2C(C)(C)C=CC(=O)[C@]23COC1=O

>  <result>
inactive

$$$$

These measurements were taken from PubChem BioAssay (NCATS).
